- System: A498
- Run description: NCI tumour cell line growth inhibition, 48 h
The source made the active and inactive calls. Rule as the data show it: active = GI50 up to about 1.1 µM and inactive = higher. Non-standard residues stand in square brackets, D forms with d. Residues, ends and D or L forms follow the SMILES beside them. ξ: configuration not given here. Pen = CC(C)(S)[C@H](N)C(=O)O; ξL = CC(C)CC(N)C(=O)O
Possible outcomes: class 1 for active, class 0 for inactive

- Compound: "CSCC[C@H](NC(=O)C(CC(C)C)NC(=O)[C@H](Cc1c[nH]cn1)NC(=O)CNC(=O)[C@@H](NC(=O)[C@@H](C)NC(=O)[C@H](Cc1c[nH]c2ccccc12)NC(=O)[C@H](CCC(N)=O)NC(=O)[C@@H](N)CC(N)=O)C(C)(C)SC)C(N)=O (some centres undefined) (H-NQW[dA][Pen](Me)GH[ξL]M-NH2)"
  Assigned category: "class 0"
- Compound: "COC(=O)CCCc1ccc2c(c1)CC1(Cc3ccccc3C1)C2"
  Assigned category: "class 0"
- Compound: "O=C(OCc1ccccc1)OOC(=O)OCc1ccccc1"
  Assigned category: "class 0"
- Compound: "COc1ccc(C(=O)Sc2c(-c3ccccc3)c(=O)n(-c3ccccc3)c(=S)n2-c2ccccc2)cc1"
  Assigned category: "class 0"
- Compound: "c1ccc2c(c1)SCCc1cn[nH]c1-2"
  Assigned category: "class 0"
- Compound: "Cc1ccnc2nc(N)ccc12"
  Assigned category: "class 0"
- Compound: "COC(=O)C12C3C4(C(=O)OC)C1C1(C(=O)OC)C2C3(C(=O)OC)C41C(=O)N(C(C)C)C(C)C (centres undefined)"
  Assigned category: "class 0"
- Compound: "CC(C)(C)OC(=O)N1CC(O)O[C@H](c2ccccc2)[C@@H]1c1ccccc1 (some centres undefined)"
  Assigned category: "class 0"
- Compound: "CCOC(=O)Cc1csc(N/N=C2\\C(=O)Nc3ccccc32)n1"
  Assigned category: "class 0"
- Compound: "C=CC1(c2ccccc2Cl)N/C(=C/OCC)CO1 (centres undefined)"
  Assigned category: "class 0"
- Compound: "COc1ccc(/C=C/c2nccc3ccccc23)cc1OC"
  Assigned category: "class 0"
- Compound: "CC(=O)C1=C(C)N2C(=NC3=C(CCc4ccccc43)C2c2cccc(Br)c2)S1 (centres undefined)"
  Assigned category: "class 0"
- Compound: "C=C[C@@]1(C)CC(=O)[C@]2(O)[C@@]3(C)[C@@H](OC(C)=O)CCC(C)(C)[C@@H]3[C@H](O)[C@H](OC(C)=O)[C@@]2(C)O1"
  Assigned category: "class 0"
- Compound: "COc1cc2c(cc1OC)-c1cc3cc(OC)c(OC)cc3c(=O)n1CC2"
  Assigned category: "class 0"
- Compound: "O=C1NC(=O)C(CCC(=O)c2ccc3ccccc3c2)C(=O)N1"
  Assigned category: "class 0"
- Compound: "Cc1ccc2c(O)cc(-c3cccc4ccccc34)nc2n1"
  Assigned category: "class 1"
- Compound: "Cn1c(=O)n2n(c1=O)C1C(=CC2)C2C=CC1n1c(=O)n(C)c(=O)n12 (centres undefined)"
  Assigned category: "class 0"
- Compound: "COC1(CC[C@H](C)COC2OC(CO)C(O)C(O)C2O)O[C@H]2C[C@H]3[C@@H]4CC=C5C[C@@H](OC6OC(CO)C(O)C(OC7OC(CO)C(O)C(O)C7O)C6OC6OC(C)C(O)C(O)C6O)CC[C@]5(C)[C@H]4CC[C@]3(C)[C@H]2[C@@H]1C (some centres undefined)"
  Assigned category: "class 0"
- Compound: "CC(=O)NC1=C(C)C(=O)c2c(nc3n2CCC3OC(=O)c2ccccc2)C1=N (centres undefined)"
  Assigned category: "class 0"
- Compound: "CC(C)=C[C@@H]1C[C@H](n2cc(C)c(=O)[nH]c2=O)ON1CCO"
  Assigned category: "class 0"
- Compound: "CN(C)CCNC(=O)c1cc(Cl)cc2cc3ccccc3nc12"
  Assigned category: "class 1"
- Compound: "CN(c1ccccc1)C(c1ccccc1)C(O)c1ccccc1 (centres undefined)"
  Assigned category: "class 0"
- Compound: "COc1ccc(C(=O)Nc2ccc(O)c(=O)cc2)cc1"
  Assigned category: "class 1"
- Compound: "CCOC(=O)CCC1(CCC(=O)OCC)CCCCCCCCC(CCC(=O)OCC)(CCC(=O)OCC)C(=O)C1=O"
  Assigned category: "class 0"
- Compound: "O/N=C1\\CCc2cc3c(cc21)CCC3"
  Assigned category: "class 0"
- Compound: "CSCC1CC(c2ccc(Cl)cc2)=NO1 (centres undefined)"
  Assigned category: "class 0"
- Compound: "N/N=C(\\C(=O)Nc1c(Cl)cc([N+](=O)[O-])cc1Cl)C(c1cnc2ccc([N+](=O)[O-])cc2n1)[N+](=O)[O-] (centres undefined)"
  Assigned category: "class 0"
- Compound: "Cc1ccc(C(=O)/C=C2\\Nc3ccccc3NC2=O)cc1"
  Assigned category: "class 0"
- Compound: "[N-]=[N+]=NC1=NNC2(C(=O)N1)c1ccccc1-c1ccccc12"
  Assigned category: "class 0"
